Recorded values, source patent US11072588B2.

# Tested on: P. aeruginosa 50692172
# protocol.text: MIC, multi-resistant clinical isolate
# Assay type: cell-based, Pseudomonas aeruginosa
# conditions: Pseudomonas aeruginosa, read-out: Antimicrobial activity (MIC)
parameter: MIC (µg/mL)
Give bare numbers, in µg/mL.

Below are worked cases with known answers.
N=C(N)NCCCCN1C(=O)N(CCCCNC(=N)N)C(=O)C(Cc2ccc3ccccc3c2)(Cc2ccc3ccccc3c2)C1=O 32
NCCCCN1C(=O)N(CCCCN)C(=O)C(Cc2ccc(F)c3ccccc23)(Cc2ccc(F)c3ccccc23)C1=O 16
N=C(N)NCCCCN1C(=O)N(CCCCNC(=N)N)C(=O)C(Cc2ccc(F)c3ccccc23)(Cc2ccc(F)c3ccccc23)C1=O 16
CC(C)(C)c1cc(CC2(Cc3cc(C(C)(C)C)cc(C(C)(C)C)c3)C(=O)N(CCCCN)C(=O)N(CCCCN)C2=O)cc(C(C)(C)C)c1 8
NCCCCN1C(=O)N(CCCCN)C(=O)C(Cc2cc(Br)cc(Br)c2)(Cc2cc(Br)cc(Br)c2)C1=O 16

--- query ---
-- ask Any idea what MIC came out for CC(C)(C)c1cc(CC2(Cc3cc(C(C)(C)C)cc(C(C)(C)C)c3)C(=O)N(CCCCNC(=N)N)C(=O)N(CCCCNC(=N)N)C2=O)cc(C(C)(C)C)c1 on P. aeruginosa 50692172?
-- reply 16
